Ref: EPA's aquatic toxicity sets

Recorded 96 h LC50 (-log10 mol/L) by entry
System: Pimephales promelas
test.summary: 96 h LC50 (-log10 mol/L); higher = more toxic
Give your answer as a number; write no unit.

Reference set (8 entries):
>  <compound>
Nc1ccc(S(=O)(=O)O)cc1

>  <recorded.metric>
96 h LC50 (-log10 mol/L)

>  <numeric.readout>
3.24

$$$$
>  <compound>
CCCCO

>  <recorded.metric>
96 h LC50 (-log10 mol/L)

>  <numeric.readout>
1.59

$$$$
>  <compound>
CC(C)O

>  <recorded.metric>
96 h LC50 (-log10 mol/L)

>  <numeric.readout>
0.778

$$$$
>  <compound>
O=[N+]([O-])c1cc([N+](=O)[O-])c(Cl)cc1Cl

>  <recorded.metric>
96 h LC50 (-log10 mol/L)

>  <numeric.readout>
6.78

$$$$
>  <compound>
CCOC(=O)C(F)(F)F

>  <recorded.metric>
96 h LC50 (-log10 mol/L)

>  <numeric.readout>
1.15

$$$$
>  <compound>
O=C1c2ccccc2C(=O)N1SC(Cl)(Cl)Cl

>  <recorded.metric>
96 h LC50 (-log10 mol/L)

>  <numeric.readout>
6.21

$$$$
>  <compound>
CC(=O)c1ccncc1

>  <recorded.metric>
96 h LC50 (-log10 mol/L)

>  <numeric.readout>
2.86

$$$$
>  <compound>
Cc1cccc(Cl)n1

>  <recorded.metric>
96 h LC50 (-log10 mol/L)

>  <numeric.readout>
2.74

$$$$

State the recorded 96 h LC50 (-log10 mol/L) for this entry: `CC(C)CO`
1.7

Any idea what its 96 h LC50 (-log10 mol/L) is? The compound is `Oc1c(I)cc(I)cc1I`
5.59

If you can, please state the reported 96 h LC50 (-log10 mol/L) value of CC(O)CC(C)(C)O (centres undefined) .
1.04

Would you kindly share the measured 96 h LC50 (-log10 mol/L) for `COc1cc(C=O)cc(Br)c1O` ?
3.59

Which measured 96 h LC50 (-log10 mol/L) value corresponds to `C#CC1(O)CCCCC1` ?
2.69

Reported 96 h LC50 (-log10 mol/L) for `C1COCCO1` : what is it?
0.931

* * *

Test system: Tetrahymena pyriformis
test.summary: 48 h IGC50 (-log10 mol/L); higher = more toxic
Our labelling divides records by 48 h IGC50 (-log10 mol/L) into ranges: lower segment = under 3, middle segment = from 3 up to 4, upper segment = 4 and over

Illustrative cases are given below, each with its answer.
>  <compound>
CCC(=O)O

>  <group>
lower segment

$$$$
>  <compound>
C#CC(=O)OC

>  <group>
upper segment

$$$$

Where would `CCCCCCC(=O)O` land among the classes by reported 48 h IGC50 (-log10 mol/L)?
lower segment

For `CNC(C)=O` , which 48 h IGC50 (-log10 mol/L) bin applies?
lower segment

Each compound maps to one class by 48 h IGC50 (-log10 mol/L). Which class for CCCC(Br)C(=O)OCC (stereo not drawn) ?
middle segment

Please indicate the class for `CCOC(=O)Cc1cccnc1` based on its 48 h IGC50 (-log10 mol/L).
lower segment

Hi, small favor: classify `CCCCCCCCCC(=O)O` by its 48 h IGC50 (-log10 mol/L) when you get a moment.
middle segment

Consider `O=[N+]([O-])c1c(Cl)cc(Cl)c([N+](=O)[O-])c1Cl` . To which 48 h IGC50 (-log10 mol/L) class does it belong?
upper segment

Exam item: assign `CCN(C)C` to the correct category.
lower segment

Which bin should I file `CC(C)(C)c1cc(N)cc(C(C)(C)C)c1` under?
upper segment

Classify this compound: `CC(C)CCN`
lower segment

For this compound, which bin applies? `O=C(O)CCCBr`
lower segment

Which 48 h IGC50 (-log10 mol/L) band matches `C#CCOC(=O)CC` ?
lower segment

// return the class label for `Cc1ccc(N)c([N+](=O)[O-])c1`
middle segment

Please let me know in which category the item `CC(C)(C)CO` belongs.
lower segment

Returns: class label. Input: `C#CC(C)=O`
upper segment

Category of `CCCCCCCCC#N` , please.
middle segment
